- assay.remarks: yeast display, Sf9 membrane polyspecificity reagent, FACS + sequencing; frameworks hold sequencing errors

>  <sequence.content>
QVQLVESGGGLVQAGGSLRLSCAASGGIFVGNAMGWYRQAPGKERELVAAITYRGGRTYYADSVKGRFTISRDNAKNTVYLQMNSLKPEDTAVYYCNAYKQGGRSKYNYWGQGTQVTVSS

>  <polyreactivity (PSR sort gate)>
high polyreactivity

$$$$
>  <sequence.content>
QVQLVESGGRLVQAGGSLRVSCAASGSTFLFYAMVWYRQAPGKERELVATISRGGSTYYADSVKGRFTISRDNAKNTVYLQMNSQIPEDTAVYYCAARATRVTIAPRYGYWGQGTQVTVSS

>  <polyreactivity (PSR sort gate)>
low polyreactivity

$$$$
>  <sequence.content>
QVQLVESGGGLVQAGGSLRLSCAASGSLFSTYAMGWYRPAPGKERELVAAIPTSGGRTYYADSVKGRFTISRDNAKNTVYLQMNSLKPEDTAVYDCNAVRGGRYGLDYWGQGTQVTVSS

>  <polyreactivity (PSR sort gate)>
high polyreactivity

$$$$
>  <sequence.content>
QVQLVESGGGLVQAGGSLRLSCAASGRTIKYNAMGRYRQGPGKERELVAAITYSGGSTYYADSVKGRFTIARDNAKNTVYLQMNSLKPEDTSVYYCAAESRPYDPGIYGDYDYWGQGTQVTVSS

>  <polyreactivity (PSR sort gate)>
low polyreactivity

$$$$
>  <sequence.content>
QVQLVESGGGLVQAGGSLRISCAASGNTFWKYAMGWYRQAPGKERELVAAISKSGGSTYYADSVKGRFTISRDNAKNTVYLQMNSLKPEDTAVYYCAAVNYRWYSRNYDHYYWGQGTQVTVSS

>  <polyreactivity (PSR sort gate)>
high polyreactivity

$$$$
>  <sequence.content>
QVQLVETGGGLVQAGGSLLLSCAASGNTFQYYAMGCYRQAPGKERELVAAITTGGSTNYADSVKGRFTISRDNAKNTVYLQMNSLKPEDTAVYYCAARGCVSKRISDYWGQGTQVTVSS

>  <polyreactivity (PSR sort gate)>
low polyreactivity

$$$$
>  <sequence.content>
QVQLVETGGGLVQAGGSLRLSCAASGRTLIGNAMGWYRQAPGKERELVAAISFRGTRTYYADSVKGRFTISRDNAKNTFYLQMNSLKPEDTAVYYCNVYTRDRGYDYWGQGTQVTVSS

>  <polyreactivity (PSR sort gate)>
high polyreactivity

$$$$
>  <sequence.content>
EVQLVESGGGLVQPGGSLRLSCAASGYIYSRYRMGWYRQAPGKGREFVAAISGGSSTNYADSVKGRFTISRDNSTNTVYLQMNSLRAEDTAVYYCAAYKIDSDPRVYWGQGTQVTVSS

>  <polyreactivity (PSR sort gate)>
low polyreactivity

$$$$
>  <sequence.content>
QVQLVESGGGLVLPGGRLRLSCAASGGTFSTYAIASYRQGPGKERELVAAISSRGTSTYYADSVKGRFTISRDNAKNSVYLQMNSLKPEDTAVYYCAAVGVKQFLGGNPFDYWGQGTQVTVSS

>  <polyreactivity (PSR sort gate)>
high polyreactivity

$$$$
>  <sequence.content>
QVQLVESGGRLVQAGGSLRLTCAASGSTFPKYAMGWYRQAPGKERELVASISVTTGSTYYADSVKGRFTISRDNAKNTVYLQMNSLKPVDTAVYYCAKRTYSRKFRGAYNYWGQGTQVTVSS

>  <polyreactivity (PSR sort gate)>
high polyreactivity

$$$$
>  <sequence.content>
QVQLVESGGGLVQAGGSLRLSCAASGCTFKYYTMGWYRQAPGKERELGAAINWRGGTTYYADSVKGRFTISRDNAKNTVYLQMNSLKPEDTAVYYSAKVNGPYRGGGYSRFDYWGQGTQVTVST

>  <polyreactivity (PSR sort gate)>
high polyreactivity

$$$$
